Hey, just so you know, these numbers are from PubChem BioAssay AID686978.

Experiment: qHTS for Inhibitors of human tyrosyl-DNA phosphodiesterase 1 (TDP1): qHTS in cells in absence of CPT; also: nearly all actives have a fitted effect of over 55% in size; also: potency is read from the fitted curve at half-maximal effect
Conditions: DT40 Tdp1-/- hTDP1 cells, no CPT, ATP luminescence, 48 h
Procedure: Human tyrosyl-DNA phosphodiesterase 1 (TDP1) is a novel repair gene, and we propose to use it as a new target for anticancer drug development. […] For the primary screen, Tdp1-/-;hTDP1 cells will be exposed to small molecules in the presence or absence of CPT, and their growth kinetics will be evaluated after 48 hours by measuring ATP activity. […] The hit compounds will then be evaluated in the presence or absence of CPT using Tdp1-/- cells. […]
Screen size: about 420,000 compounds; about 64,000 (15%) were called active. Roughly 27% stayed inconclusive and do not appear here. The list is a sample of the results.
quantity: Potency

// solved cases for Potency follow
INPUT: Can you look up the measured Potency of O=C(NC1CCCCC1)c1ccc(CNc2c(N3CCOCC3)c(=O)c2=O)cc1 for me?
OUTPUT: inactive

INPUT: If you can, please state the reported Potency value of COCC1CCN(C(=O)c2ccc3oc(Cc4ccccc4)nc3c2)C1 (stereo not given) .
OUTPUT: inactive

INPUT: Requested field: Potency. Item: CN1CCN(Cc2c(O)ccc3c2oc(=O)c2ccccc23)CC1
OUTPUT: 11.6 µM (active)

INPUT: Which Potency is reported for this molecule? Cc1ccc(OCC(=O)Nc2ccc(OCc3cc(=O)n4c(C)csc4n3)cc2)cc1C
OUTPUT: inactive

INPUT: Item under review: O=C(O)c1ccccc1CSc1nc2ccccc2s1 . Reported Potency?
OUTPUT: inactive

Please look at the following molecule next.
INPUT: Quick one: Potency of Cc1c(NC(=S)Nc2ccccc2)c(=O)n(-c2ccccc2)n1C ?
OUTPUT: inactive

----------
Experiment: qHTS for Inhibitors of human tyrosyl-DNA phosphodiesterase 1 (TDP1): qHTS in cells in absence of CPT; also: nearly all actives have a fitted effect of over 55% in size
Conditions: DT40 Tdp1-/- hTDP1 cells, no CPT, ATP luminescence, 48 h
Screen size: about 420,000 compounds; about 64,000 (15%) were called active. Roughly 27% stayed inconclusive and do not appear here. Calls follow the shape of the dose curve; as a rule, active = well fitted inhibition curve with a large enough effect; inconclusive = small, poorly fitted or top-dose-only effect; inactive = flat fitted curve, though single readings scatter. Not all results are given here.
Log the outcome using a class from active, inactive

INPUT: Returns: the outcome recorded for Cn1nc(C(C)(C)C)c([N+](=O)[O-])c1C(N)=O in this assay.
OUTPUT: inactive

INPUT: Recorded test outcome, item NNc1cccc(C=Cc2ccccc2)cc1=O
OUTPUT: active

INPUT: Give the logged outcome of this assay for the following molecule: Cc1cccc(C(=O)N2CCC(c3nc4ccccc4s3)CC2)c1
OUTPUT: inactive

INPUT: Check the results log: what was the call for COc1cc(N/C=C2\CC(=O)NC(C)=C2C#N)cc(OC)c1OC ?
OUTPUT: active

INPUT: What was the test verdict on COc1ccccc1C1CN(Cc2ccccc2O)Cc2ccccc2O1 (stereo unspecified) ?
OUTPUT: inactive

INPUT: Call for entry COc1cc2c(cc1OC)C(C(=O)Nc1cc(C)c(OC)c(C)c1)CC(=O)N2 (stereo unspecified) :
OUTPUT: inactive

INPUT: Hi, sorry to bother you, what did the test record for Cc1cc(-c2cccs2)nc(-n2cccc2)n1 ?
OUTPUT: inactive

INPUT: State the result this test recorded for COc1ccc(-c2nnc(-c3ccc4ccccc4c3)o2)cc1 .
OUTPUT: inactive
